Target: recombinant full-length WRN protein (1-1432) (Homo sapiens)
Construct: recombinant full-length WRN protein (1-1432)
Sequence (Q14191 whole entry): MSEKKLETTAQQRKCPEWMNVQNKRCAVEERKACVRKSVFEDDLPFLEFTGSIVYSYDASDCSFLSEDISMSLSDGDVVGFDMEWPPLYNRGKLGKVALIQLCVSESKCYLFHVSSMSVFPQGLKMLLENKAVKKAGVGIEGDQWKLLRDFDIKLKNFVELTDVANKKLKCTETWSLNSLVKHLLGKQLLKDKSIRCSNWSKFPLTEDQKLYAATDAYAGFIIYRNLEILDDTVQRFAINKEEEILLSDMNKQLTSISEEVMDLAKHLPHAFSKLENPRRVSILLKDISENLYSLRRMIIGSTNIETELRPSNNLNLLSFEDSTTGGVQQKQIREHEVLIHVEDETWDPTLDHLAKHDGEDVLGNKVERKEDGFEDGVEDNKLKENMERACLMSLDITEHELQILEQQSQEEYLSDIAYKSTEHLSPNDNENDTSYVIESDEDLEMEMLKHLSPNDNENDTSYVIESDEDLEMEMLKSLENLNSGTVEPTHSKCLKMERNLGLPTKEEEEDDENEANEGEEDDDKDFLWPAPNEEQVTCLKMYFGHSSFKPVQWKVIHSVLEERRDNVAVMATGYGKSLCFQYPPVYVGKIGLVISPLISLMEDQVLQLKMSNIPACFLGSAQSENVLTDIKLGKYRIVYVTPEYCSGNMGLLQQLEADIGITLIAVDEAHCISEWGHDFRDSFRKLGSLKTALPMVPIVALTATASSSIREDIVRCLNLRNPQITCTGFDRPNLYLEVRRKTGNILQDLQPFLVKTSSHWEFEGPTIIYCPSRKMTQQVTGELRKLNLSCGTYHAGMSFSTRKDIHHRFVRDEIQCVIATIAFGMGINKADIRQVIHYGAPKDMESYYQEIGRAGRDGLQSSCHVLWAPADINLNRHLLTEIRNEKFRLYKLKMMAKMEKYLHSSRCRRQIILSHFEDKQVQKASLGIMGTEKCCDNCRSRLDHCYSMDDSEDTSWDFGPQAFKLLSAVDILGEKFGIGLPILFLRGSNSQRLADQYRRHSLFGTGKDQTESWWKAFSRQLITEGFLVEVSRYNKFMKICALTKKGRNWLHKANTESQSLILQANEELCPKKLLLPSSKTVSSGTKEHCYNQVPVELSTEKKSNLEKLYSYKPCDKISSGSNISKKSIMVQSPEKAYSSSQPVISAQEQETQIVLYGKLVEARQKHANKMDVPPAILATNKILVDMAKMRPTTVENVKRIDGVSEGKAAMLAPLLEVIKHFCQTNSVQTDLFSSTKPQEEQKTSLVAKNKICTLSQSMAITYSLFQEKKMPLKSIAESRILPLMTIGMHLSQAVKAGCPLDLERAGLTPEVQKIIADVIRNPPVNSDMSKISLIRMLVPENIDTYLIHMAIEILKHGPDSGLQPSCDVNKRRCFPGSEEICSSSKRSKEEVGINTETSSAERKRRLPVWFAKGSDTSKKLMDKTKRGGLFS
Experiment: WRN unwinding activity, fluorogenic 384-well assay (Example A)
Assay type: biochemical
Conditions: WRN unwinding activity, 4 hr; Table 2; read-out: 4 hr UNW pIC50 (converted)
METRIC_NAME: IC50 (nM)
Numbers only, in nM.

# batch size: 3; output IC50 per entry
1. Cc1nc2cc(S(=O)(=O)N(C)c3ccc([C@H]4CCC[C@@H](C(=O)N[C@H]5CC[C@H](C6CCC6)CC5)[C@@H]4C(=O)O)cc3)ccc2n1C [Example 188]
2. COc1cc(S(=O)(=O)N(C)c2ccc([C@H]3CCC[C@@H](C(=O)Nc4ccc(C(F)(F)F)cc4F)[C@@H]3C(=O)O)cc2)ccc1Br [Example 136]
3. Cc1nc2cc(S(=O)(=O)N(C)c3ccc([C@H]4C[C@]5(CCCO5)C[C@@H](C(=O)Nc5ccc(C(F)(F)F)cc5F)[C@@H]4C(=O)O)cc3)ccc2n1C (stereo in doubt) [Example 388]

Reply:
1: 2.51; 2: 39.8; 3: 3.98

# batch size: 5; output IC50 per entry
1. Cn1cc(-c2ccc([C@H]3CCC[C@@H](C(=O)Nc4ccc(C(F)(F)F)cc4F)[C@@H]3C(=O)O)cc2)cn1 [Example 12]
2. Cc1nc2cc(S(=O)(=O)N(C)c3ccc([C@@H]4C[C@@H](N5CC[C@H](F)C5)C[C@H](C(=O)Nc5ccc(C(F)(F)F)cc5F)[C@H]4C(=O)O)cc3)ccc2n1C (stereo in doubt) [Example 379]
3. Cc1nnc(-c2cc([C@@H]3CCC[C@H](C(=O)Nc4ccc(C(F)(F)F)cc4F)[C@H]3C(=O)O)ccc2C(F)(F)F)o1 (single isomer, unassigned) [Example 245]
4. Cc1nc2cc(S(=O)(=O)N(C)c3ccc([C@@H]4C[C@H](N5CC[C@@H](F)C5)C[C@H](C(=O)Nc5ccc(C(F)(F)F)cc5F)[C@H]4C(=O)O)cc3)ccc2n1C (stereo in doubt) [Example 381]
5. CN(c1ccc([C@H]2CCC[C@@H](C(=O)Nc3ccc(C(F)(F)F)cc3F)[C@@H]2C(=O)O)cc1)S(=O)(=O)c1cccc(C2CCNCC2)c1 [Example 261]

Reply:
63.1
501
7.94
79.4
1.58

---

Task for the reader: assign each of the following molecules its reported CC50.
Tested on: SW48 human colorectal cancer cells (MSI-H cancer cells)
Test: SW48 cell viability, CellTiter-Glo, 120 hours (Example B)
Details: Homo sapiens, SW48, 120 h, read-out: SW48 pCC50, SW48 cell viability, 120 hours incubation (converted); Table 2
Structures can show the parent of a compound that is named as a salt.
One number for each entry, in nM.

Cc1nc2cc(S(=O)(=O)N(C)c3ccc([C@H]4CCC[C@@H](C(=O)Nc5ccc(C(F)(F)F)cc5F)[C@@H]4C(=O)O)cc3)ccc2[nH]1 (single isomer, unassigned); 794
Cc1nc2cc(S(=O)(=O)N(C)c3ccc([C@H]4C[C@@H](N5CC[C@H](F)C5)C[C@@H](C(=O)Nc5ccc(C(F)(F)F)cc5F)[C@@H]4C(=O)O)cc3)ccc2n1C (stereo in doubt); 126
Cc1nc2cc(S(=O)(=O)N(C)c3ccc([C@@H]4C[C@@H]5COC[C@@H]5[C@@H](C(=O)Nc5ccc(C(F)(F)F)cc5F)[C@@H]4C(=O)O)cc3)ccc2n1C (single isomer, unassigned); 2510

# batch size: 2; output CC50 per entry
1. Cc1nc2cc(S(=O)(=O)N(C)c3ccc([C@@H]4CCC[C@H](COc5ccc(C(F)(F)F)cc5)[C@H]4C(=O)O)cc3)cc([C@@H]3CCCNC3)c2n1C (relative stereo) [Example 207, hydrochloride]
2. CN(c1ccc([C@H]2CCC[C@@H](C(=O)Nc3ccc(C(F)(F)F)cc3F)[C@@H]2C(=O)O)cc1)S(=O)(=O)c1ccc2ocnc2c1

Reply:
7940
1580
